Known survival of a selection of compounds
Tested on: DeltatarO mutant
Assay: S. aureus survival, RN4220 and DeltatarO strains – OD600, teichoic acid synthesis inhibitors, primary screen (AID 463173)
Settings: S. aureus RN4220 wild type/DeltatarO growth, OD600, 18 h, stronger effect = lower value, screened at 18.75 µg/mL (by protocol)
Hit rate of the full screen: of about 52,000 compounds, about 4,300 (8.3%) were called active. Many of the other results were omitted from the sample, so actives are more common in it than they were.
# unit: % | format: bare number

Supply survival value. Item: CCOC(=O)c1cnc2c(C)c(Cl)ccc2c1Nc1ccc(N2CCOCC2)cc1
43

Complete the entry with survival for CCOC(=O)c1ccccc1NC(=O)c1cnc(N2CCOCC2)c2ccccc12
90

Using known records, supply survival for Cc1ccc(CN(Cc2ccco2)C(=O)COc2ccc(Cl)cc2Cl)cc1
96

Specify survival for COc1cccc(-c2ccc3c(N)c(C(=O)c4ccc(Br)cc4)sc3n2)c1 and stop.
28

Supply survival value. Item: CCOC(=O)c1cnc2ccc(Cl)cc2c1Nc1ccc(OCC)cc1
-5

Supply survival value. Item: O=C(Cc1ccc(Cl)cc1)Nc1nnc2n1CCS2
77

###

Tested on: DeltatarO mutant
Assay: S. aureus survival, RN4220 and DeltatarO strains – OD600, teichoic acid synthesis inhibitors, primary screen (AID 463173)
Settings: S. aureus RN4220 wild type/DeltatarO growth, OD600, 18 h, screened at 18.75 µg/mL (by protocol)
Hit rate of the full screen: of about 52,000 compounds, about 4,300 (8.3%) were called active. Cut-off read from the data, not from the text of the source: active = survival mostly below about 52% (no sharp cut-off); inactive = mostly above about 56%. The entries come from a sample that favours actives as a whole.
Give one outcome, nothing more. List: YES for active, NO for inactive

Would you please look over these solved cases?
COc1ccc(NC(=O)Cn2cc(C(=O)c3ccccc3)c(=O)c3cc(OC)ccc32)c(OC)c1 : NO
COc1ccc(Cn2c(CNS(=O)(=O)c3ccc4c(c3)CCCC4)nc3cccnc32)cc1 : NO
Cc1ccc(-c2nnn3c2nc(NC2CCC(C)CC2)c2ccccc23)cc1 (stereo unspecified) : YES

Could you check what this test reported for COc1ccc(Cn2c(CNS(=O)(=O)c3ccc(C)c(C)c3)nc3cccnc32)cc1 ?
YES

Any idea what this test logged for COc1ccccc1N1CCN(C(=O)Cn2ncc3c2-c2cc(C)ccc2OC3)CC1 ?
NO

What call does the record list for CCOc1ccc(NC(=O)c2cc(S(=O)(=O)N3CCC(C)CC3)cn2C)cc1 ?
NO

Give the logged outcome of this assay for the following compound: CC(C)N(C(C)C)S(=O)(=O)c1ccccc1
NO

What did the test return for Cc1ccc(-c2nnn3c2nc(NCCc2ccc(Cl)cc2)c2ccccc23)cc1 ?
NO

For this compound, state the assay outcome: CC(=O)c1cc2c(cc1N/C(=N/S(=O)(=O)c1ccc(Br)cc1)c1ccccc1)OCO2
NO

Entry CCCCCNc1nc2c(-c3ccccc3)nnn2c2ccccc12 : call = ?
NO

Could you please tell me the result logged for Clc1ccc(-c2nnn3c2nc(NC2CCCCC2)c2ccccc23)cc1 in this assay?
YES

###

Tested on: DeltatarO mutant
Test: S. aureus survival, RN4220 and DeltatarO strains – OD600, teichoic acid synthesis inhibitors, primary screen (AID 463173)
Conditions: S. aureus RN4220 wild type/DeltatarO growth, OD600, 18 h, stronger effect = lower value, screened at 18.75 µg/mL (by protocol)
Among all 52,000 compounds or so, about 4,300 (8.3%) were called active. The entries come from a sample that favours actives as a whole.
Consider the reported survival of an entry and match it to a band in LOW (below 60%), MID (60% to below 80%), HIGH (80% or more)

COc1cc(OC)cc(-c2nc3n(n2)C(c2ccccc2F)C(C(=O)Nc2cccnc2)=C(C)N3)c1 (stereo not given) : LOW
COc1ccc(CCNC(=O)CSCc2nc(-c3cccc(C)c3)oc2C)cc1OC : MID
COc1cccc(-c2nc(CSCC(=O)NCCc3ccc(Cl)cc3)c(C)o2)c1 : LOW

# bin lookup: classify Cc1ccc(NC(=O)CN2CCSc3ccc(S(=O)(=O)N4CCCC4)cc32)cc1 by its survival
MID

Just checking, what class would you give COCCN(C(=O)c1ccco1)c1nnc(-c2ccc(F)cc2)s1 here?
LOW

Band assignment needed for Cc1noc(-c2ccc(-c3noc(-c4ccc(F)cc4)n3)cc2)n1 please.
MID

The entry to classify is CC1(C)CC(N=Cc2c(O)[nH]c(=O)[nH]c2=O)CC(C)(C)N1 ; which class holds it?
HIGH

Tag the class for COc1ccc(-n2nc(C(=O)NCc3ccc(F)cc3)c3c4ccccc4n(C)c3c2=O)cc1
HIGH

Field: class (survival) — entry: CCOCCCNC(=O)Cn1ncc2c([nH]c3ccc(C)cc32)c1=O
HIGH

Dear colleague, I would appreciate it if you could identify the bin for Cc1noc(-c2ccc(-c3noc(-c4ccc(Cl)cc4)n3)cc2)n1 and reply at your convenience.
MID

Which class holds CCc1ccc(NC(=O)CN2CCSc3ccc(S(=O)(=O)N4CCCC4)cc32)cc1 ?
LOW

Quick check: band for CCN(CCCNC(=O)c1cc2c(=O)n(CC)c3ccccc3c2s1)c1ccccc1
LOW

Exam item: assign Cc1ccc(N(CC(C)C)S(=O)(=O)c2nnc(NC(=O)c3ccco3)s2)cc1 to the correct category.
LOW

Which bin, given its survival, does CCOc1ccc(Cc2nc(C)c(CC(N)=O)c(=O)[nH]2)cc1 occupy?
MID

Returns: class label. Input: Cc1ccc2oc(C(=O)N(Cc3ccc(N(C)C)cc3)CC3CCCO3)c(C)c2c1 (stereo not given)
HIGH

Input CC1=C(C(=O)Nc2ccccc2)C(c2cccc(Cl)c2)n2nc(SCC(=O)c3ccc(C)cc3)nc2N1 (stereo not given) ; output its category
LOW

Dear colleague, I would appreciate it if you could identify the bin for CCOC(=O)Cc1ccc(NC(=O)N(Cc2ccc(OC)cc2)C2CCN(C(C)=O)CC2)cc1 and reply at your convenience.
HIGH

// bin(item) where item = CCc1nn(CC(=O)NC(C)CC)c(=O)c2cc3c(OC)cccc3n12 (stereo not given)
HIGH

###

Attribute: survival
System: DeltatarO mutant
Test: S. aureus survival, RN4220 and DeltatarO strains – OD600, teichoic acid synthesis inhibitors, primary screen (AID 463173)
Details: S. aureus RN4220 wild type/DeltatarO growth, OD600, 18 h, stronger effect = lower value, screened at 18.75 µg/mL (by protocol)
The whole screen tested about 52,000 compounds, of which about 4,300 (8.3%) were called active. The full list was thinned out, with actives kept by preference.
Write the number in % without appending the unit.

Given COCCNC(=O)c1cc2ccccc2o1 , respond with its survival.
104

Tell me survival reported for O=C(Nc1ccccc1C(F)(F)F)N1CCOc2ccc(Cl)cc21
46

State its survival for this compound: CC(=O)c1sc2c(c1C)c(=O)n(-c1ccc(Cl)cc1)c(=O)n2Cc1cc(=O)n2cc(Cl)ccc2n1
58

Quick one: give measured survival for Cc1cccc(CCNC(=O)c2nc(-c3ccc(Cl)cc3)n3c2CCCCC3)c1
89

Output survival of Cc1ccc2[nH]c(=O)c(CN(Cc3nnnn3CCc3ccccc3)C3CCCC3)cc2c1
91

###

Tested on: DeltatarO mutant
Test: S. aureus survival, RN4220 and DeltatarO strains – OD600, teichoic acid synthesis inhibitors, primary screen (AID 463173)
Conditions: S. aureus RN4220 wild type/DeltatarO growth, OD600, 18 h, stronger effect = lower value, screened at 18.75 µg/mL (by protocol)
The whole screen tested about 52,000 compounds, of which about 4,300 (8.3%) were called active. What follows is part of a selection rich in actives, with near analogues and random picks from the rest.
Listing of recorded survival by entry.
# value in %; strip the unit string

As a guide, the following entries are already answered.
COc1ccc(-c2nc(CSCC(=O)N3CCN(c4ccccc4)CC3)c(C)o2)cc1 : 60
COc1ccc(-c2nc(CSCC(=O)N3CCN(c4ccc(F)cc4)CC3)c(C)o2)cc1 : 57
CNC(=O)C1CCC(Cn2c(=O)c3sccc3n(CC(=O)NCc3ccc(C)cc3)c2=O)CC1 (stereo not given) : 80
COC(=O)c1ccccc1NC(=O)c1ccc2c(c1)CCN2S(C)(=O)=O : 94

Dear colleague, please send me the reported survival for CCOc1ccc(NC(=O)c2ccc3c(c2)CCN3S(=O)(=O)CC)cc1 when you can.
48

###

System: DeltatarO mutant
Test: S. aureus survival, RN4220 and DeltatarO strains – OD600, teichoic acid synthesis inhibitors, primary screen (AID 463173)
Conditions: S. aureus RN4220 wild type/DeltatarO growth, OD600, 18 h, stronger effect = lower value, screened at 18.75 µg/mL (by protocol)
About 4,300 (8.3%) of roughly 52,000 compounds were called active. The full list was thinned out, with actives kept by preference.
REPORTED_METRIC: survival (%)
Number in %, nothing else.

Examples with answers:
COc1cc2c(=O)n(Cc3ccccc3Cl)c(=O)n(CC(=O)Nc3ccc(C)c(C)c3)c2cc1OC : 83
CC(=O)c1ccc(NC(=O)Cn2cnc3nc4c(cc3c2=O)CC(C)CC4)cc1 (stereo not given) : 60
CCOC(=O)c1c(-c2ccccc2)csc1NC(=O)c1nc(SCC)ncc1Cl : 87
CCOc1ccc(C2CC(=O)c3c([nH]c(C(=O)OCCOc4ccccc4)c3C)C2)cc1 (stereo not given) : 72
COc1ccc2oc(=O)c(C(=O)Nc3cccc(C(=O)O)c3)cc2c1 : 50
COc1ccc2oc(=O)c(C(=O)NCCc3c(C)[nH]c4c(C)cccc34)cc2c1 : 47
Cc1ccc(CCNC(=O)c2c(C)oc3ncn(CC(C)C)c(=O)c23)cc1 : 119
CCn1nc(C)c2c(-c3ccccc3)cc(=O)n(C(C)C(=O)NCCC(C)C)c21 (stereo not given) : 99
COc1cccc2cc(C(=O)NCCc3c(C)[nH]c4ccc(F)cc34)c(=O)oc12 : 53

Proceed to the following item.
Answer briefly: survival recorded on DeltatarO mutant for Cc1ccc2[nH]c(C)c(CCNC(=O)c3cc4cc(Br)ccc4oc3=O)c2c1
37
